Values from the supplement of paper PMC11579375

Let's look at some molecules and their measured area under the viability dose-response curve.
Tested on: 17F1 (fetal-I hepatoblastoma organoid with intermediate liver markers)
Test protocol: area under the viability dose-response curve (AUC) (AUC (arbitrary units, max 500 = no viability loss)); higher = less sensitive (higher viability)
Condition notes: exposure time: 120 h; concentration range: 0.1 nM - 10 µM, 6 doses
The reply should be a number, written without any unit.

*Q* If you can, please state the reported area under the viability dose-response curve value of `O=C(c1ccc(F)c(F)c1Nc1ccc(I)cc1F)N1CC(O)([C@@H]2CCCCN2)C1` .
*A* 438

*Q* If you can, please state the reported area under the viability dose-response curve value of `CC[C@@H]1C(=O)N(C)c2cnc(Nc3ccc(C(=O)N[C@H]4CC[C@H](N5CCN(CC6CC6)CC5)CC4)cc3OC)nc2N1C(C)C` .
*A* 331

*Q* If you can, please state the reported area under the viability dose-response curve value of `Nc1ccn([C@@H]2O[C@H](CO)[C@@H](O)C2(F)F)c(=O)n1` .
*A* 273

*Q* If you can, please state the reported area under the viability dose-response curve value of `Cc1nc(-c2cn3c(n2)-c2ccc(-c4cnn(C(C)(C)C(N)=O)c4)cc2OCC3)n(C(C)C)n1` .
*A* 493

*Q* If you can, please state the reported area under the viability dose-response curve value of `CC[C@@]1(O)C(=O)OCc2c1cc1n(c2=O)Cc2cc3ccccc3nc2-1` .
*A* 277

*Q* If you can, please state the reported area under the viability dose-response curve value of `CC1(C)CCC(CN2CCN(c3ccc(C(=O)NS(=O)(=O)c4ccc(NCC5CCOCC5)c([N+](=O)[O-])c4)c(Oc4cnc5[nH]ccc5c4)c3)CC2)=C(c2ccc(Cl)cc2)C1` .
*A* 468

***
*Q* If you can, please state the reported area under the viability dose-response curve value of `Cn1ncnc1[C@H]1c2n[nH]c(=O)c3cc(F)cc(c23)N[C@@H]1c1ccc(F)cc1` .
*A* 486

*Q* If you can, please state the reported area under the viability dose-response curve value of `COc1ccc(-c2ccc3c(N4CCOC[C@@H]4C)nc(N4CCOC[C@@H]4C)nc3n2)cc1CO` .
*A* 456

*Q* If you can, please state the reported area under the viability dose-response curve value of `FC(F)(F)c1ccc(/C=C/c2nc(COc3ccc(CCCCn4ccnn4)cc3)co2)cc1` .
*A* 245
